Assayed target: T1, chimeric Leptin (Hu)-EPO (Mu) receptor presented by the 32D OBECA cell line (human; murine, UniProt P48357 22-839; P14753 250-507)
T1 construct: Chimera of human leptin receptor and murine EPO receptor on 32D OBECA / 32D-Keptin cells; 273(29): 18365-18373; also called chimeric Hu-Leptin/Mu-EPO receptor
T1 sequence (looked up): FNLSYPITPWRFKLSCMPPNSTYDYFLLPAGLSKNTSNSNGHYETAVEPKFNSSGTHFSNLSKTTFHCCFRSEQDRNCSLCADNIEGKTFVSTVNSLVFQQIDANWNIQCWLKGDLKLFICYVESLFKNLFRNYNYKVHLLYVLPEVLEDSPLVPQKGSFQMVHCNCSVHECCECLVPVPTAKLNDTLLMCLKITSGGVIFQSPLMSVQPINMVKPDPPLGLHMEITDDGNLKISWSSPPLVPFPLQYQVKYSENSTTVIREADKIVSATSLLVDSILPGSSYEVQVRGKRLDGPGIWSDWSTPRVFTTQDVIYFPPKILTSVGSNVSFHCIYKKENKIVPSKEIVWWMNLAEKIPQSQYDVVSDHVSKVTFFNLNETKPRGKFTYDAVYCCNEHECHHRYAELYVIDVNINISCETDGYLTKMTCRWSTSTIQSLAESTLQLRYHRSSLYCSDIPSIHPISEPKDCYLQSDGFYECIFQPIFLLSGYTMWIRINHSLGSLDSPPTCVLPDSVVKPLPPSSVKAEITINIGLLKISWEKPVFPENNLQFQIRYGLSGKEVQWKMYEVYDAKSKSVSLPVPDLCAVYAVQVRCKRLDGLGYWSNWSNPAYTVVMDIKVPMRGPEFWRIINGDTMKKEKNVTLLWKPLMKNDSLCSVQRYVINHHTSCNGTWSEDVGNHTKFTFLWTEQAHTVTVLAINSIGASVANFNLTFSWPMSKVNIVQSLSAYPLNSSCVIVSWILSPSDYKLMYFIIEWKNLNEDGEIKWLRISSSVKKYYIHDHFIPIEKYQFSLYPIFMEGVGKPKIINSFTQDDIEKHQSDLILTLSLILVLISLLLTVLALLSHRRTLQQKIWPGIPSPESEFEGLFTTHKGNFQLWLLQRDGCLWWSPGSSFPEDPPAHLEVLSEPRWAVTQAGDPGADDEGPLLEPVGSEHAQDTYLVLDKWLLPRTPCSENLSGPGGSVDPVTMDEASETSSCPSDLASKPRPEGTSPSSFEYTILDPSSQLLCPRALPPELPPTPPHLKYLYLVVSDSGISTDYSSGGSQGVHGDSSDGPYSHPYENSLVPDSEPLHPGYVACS
Test details: Obeca cell binding: displacement of 125I-murine leptin from 32D OBECA cell membranes
Below, each of the binders is paired with its reported pIC50 value.
FYI, pIC50 means -log10 of a concentration in mol per litre.

Worked examples, 3 binders total:
Seal leptin with N-terminal methionine, and with amino acids 3-22 replaced with amino acids 5-24 (helix 1) of metreleptin, and amino acids 72-93 replaced with … (ligand, Seal-human chimeric leptin; also called Compound 45) MPIQKVQDDTKTLIKTIVTRINDISPPQGVCSRPRVAGLDFIPRVQSVRTLSGMDQILATYQQILTSLQSRNVIQISNDLENLRDLLHVLAFSKSCPVPRARGSDTIKGLGNVLRASVHSTEVVALSRLKAALQDMLRQLDRNPGC | 9.28
Seal leptin with N-terminal methionine, with amino acids 23-49 replaced with amino acids 25-51 (AB loop) of metreleptin, and with amino acids 120-141 replaced … (ligand, Seal-human chimeric leptin; also called Compound 40) MPIQRVQDDTKTLIKTIITRINDISHTQSVSSKQKVTGLDFIPGLHPILTLSGMDQILATYQQILTSLQSRSVVQIANDLANLRALLRLLASAKSCPVPRARGSDTIKGLGNVLRASVHSTEVVALSRLQGSLQDMLWQLDLNPGC | 8.62
Seal leptin with N-terminal methionine, and with amino acids 30 and 93-119 replaced with amino acids 32 and 95-121 (loop 3-4) of metreleptin (ligand, Seal-human chimeric leptin; also called Compound 49; Cmpd 49) MPIQRVQDDTKTLIKTIITRINDISPPQGVSSRPRVAGLDFIPRVQSVRTLSGMDQILATYQQILTSLQSRSVVQIANDLANLRALLRLLASAKSCHLPWASGLETLDSLGGVLEASGYSTEVVALSRLKAALQDMLRQLDRNPGC | 9.98

Continue with the next binder.
Measured pIC50 of Seal leptin (ligand, also called Compound 38; Cmpd 38) PIQRVQDDTKTLIKTIITRINDISPPQGVCSRPRVAGLDFIPRVQSVRTLSGMDQILATYQQILTSLQSRSVVQIANDLANLRALLRLLASAKSCPVPRARGSDTIKGLGNVLRASVHSTEVVALSRLKAALQDMLRQLDRNPGC : 8.70
